System: HCT116 cells
Experiment: Tumor cell proliferation (Alamar Blue), HCT116
Type: cell-based
Details: Homo sapiens, HCT-116, 72 h, HCT116, 72 h; lower bound in nM
Measure Name: IC50

Solved entries:
COCc1c(-c2ccc(NC(=O)Nc3cc(C(F)(F)F)ccc3F)cc2)c2c(N)ncnn2c1CN1CCN(C)CC1 ... > 500 nM
COCc1c(-c2ccc(NC(=O)Nc3cc(C(F)(F)F)ccc3F)cc2)c2c(N)ncnn2c1C(C)O (centres unmarked) ... > 500 nM
COCc1c(-c2ccc(NC(=O)Nc3cc(C(F)(F)F)ccc3F)cc2)c2c(N)ncnn2c1CO ... > 500 nM
N#Cc1c(C(=O)NCC(F)(F)F)c(-c2ccc(NC(=O)Nc3cc(C(F)(F)F)ccn3)cc2)c2c(N)ncnn12 ... > 500 nM

Next item in the queue.
*Q* For `COCc1c(-c2ccc(NC(=O)Nc3cc(C(F)(F)F)ccc3F)cc2)c2c(N)ncnn2c1CN1CCOCC1` , what is its reported IC50?
*A* > 500 nM

Taken from patent US8829185B2.
